Recorded half-life values for a group of compounds are listed next.
# MEASUREMENT_NOTES: Metabolic stability in human liver microsomes assessed as half-life measured upto 60 mins by LC-MS/MS analysis
# Type: ADME, Microsome
The reply should contain only the number, in min.

COMPOUND	ASSAY_METRIC	RESULT_NUMBER
CC(=O)N[C@H]1[C@H](OCCCCC(=O)NCCOCCOCCOCCOCCn2cc(COP(=O)(CO[C@H](C)Cn3cnc4c(N)ncnc43)OCOC(=O)C(C)(C)C)nn2)O[C@H](CO)[C@H](O)[C@H]1O (some centres not stated)	half-life	12.4

API: the following record is the query input.
// CC(=O)N[C@H]1[C@H](OCCCCC(=O)NCCOCCOCCOCCOCCn2cc(COP(=O)(COCCn3cnc4c(N)ncnc43)OCOC(=O)C(C)(C)C)nn2)O[C@H](CO)[C@H](O)[C@H]1O (some centres not stated) : half-life value = 14.9

====

# MEASUREMENT_NOTES: Half-life in Sprague-Dawley rat at 50 mg/kg, po by LC-MS analysis
# Type: ADME, organism-based
# MEASUREMENT_CONDITIONS: in vivo
ASSAY_METRIC: half-life (h)
The reply should contain only the number, in h.

MOLECULE	half-life [h]
CC(=O)N[C@H]1[C@H](OCCCCC(=O)NCCOCCOCCOCCOCCn2cc(COP(=O)(CO[C@H](C)Cn3cnc4c(N)ncnc43)OCOC(=O)C(C)(C)C)nn2)O[C@H](CO)[C@H](O)[C@H]1O (some centres not stated)	3.2

API: the following record is the query input.
// CC(=O)N[C@H]1[C@H](OCCCCC(=O)NCCOCCOCCOCCOCCn2cc(COP(=O)(COCCn3cnc4c(N)ncnc43)OCOC(=O)C(C)(C)C)nn2)O[C@H](CO)[C@H](O)[C@H]1O (some centres not stated) : half-life value = 3.18

====

# MEASUREMENT_NOTES: AUC (0 to infinity) in Sprague-Dawley rat at 50 mg/kg, po by LC-MS analysis
# Assay type: ADME, organism-based
# MEASUREMENT_CONDITIONS: in vivo
ASSAY_METRIC: AUC(0-inf) (ng·h/mL)
The reply should contain only the number, in ng·h/mL.

MOLECULE	UNIT_ABBREV	AUC(0-inf)
CC(=O)N[C@H]1[C@H](OCCCCC(=O)NCCOCCOCCOCCOCCn2cc(COP(=O)(CO[C@H](C)Cn3cnc4c(N)ncnc43)OCOC(=O)C(C)(C)C)nn2)O[C@H](CO)[C@H](O)[C@H]1O (some centres not stated)	ng·h/mL	4930

API: the following record is the query input.
// CC(=O)N[C@H]1[C@H](OCCCCC(=O)NCCOCCOCCOCCOCCn2cc(COP(=O)(COCCn3cnc4c(N)ncnc43)OCOC(=O)C(C)(C)C)nn2)O[C@H](CO)[C@H](O)[C@H]1O (some centres not stated) : AUC(0-inf) value = 3310

====

Recorded CL/F values for a group of compounds are listed next.
# MEASUREMENT_NOTES: Clearance in Sprague-Dawley rat at 50 mg/kg, po by LC-MS analysis
# Assay type: ADME, organism-based
# MEASUREMENT_CONDITIONS: in vivo
The reply should contain only the number, in mL/min/kg.

COMPOUND	CL/F, mL/min/kg
CC(=O)N[C@H]1[C@H](OCCCCC(=O)NCCOCCOCCOCCOCCn2cc(COP(=O)(CO[C@H](C)Cn3cnc4c(N)ncnc43)OCOC(=O)C(C)(C)C)nn2)O[C@H](CO)[C@H](O)[C@H]1O (some centres not stated)	172

API: the following record is the query input.
// CC(=O)N[C@H]1[C@H](OCCCCC(=O)NCCOCCOCCOCCOCCn2cc(COP(=O)(COCCn3cnc4c(N)ncnc43)OCOC(=O)C(C)(C)C)nn2)O[C@H](CO)[C@H](O)[C@H]1O (some centres not stated) : CL/F value = 252

Origin of measurements: ChEMBL document CHEMBL6153042
